// provenance: paper PMC4988470

- System tested: α1β3M286Aγ2S GABAA receptor (Rattus norvegicus, UniProt P62813+P63079, M311A)
- Sequence (P62813 28-455, one chain of several): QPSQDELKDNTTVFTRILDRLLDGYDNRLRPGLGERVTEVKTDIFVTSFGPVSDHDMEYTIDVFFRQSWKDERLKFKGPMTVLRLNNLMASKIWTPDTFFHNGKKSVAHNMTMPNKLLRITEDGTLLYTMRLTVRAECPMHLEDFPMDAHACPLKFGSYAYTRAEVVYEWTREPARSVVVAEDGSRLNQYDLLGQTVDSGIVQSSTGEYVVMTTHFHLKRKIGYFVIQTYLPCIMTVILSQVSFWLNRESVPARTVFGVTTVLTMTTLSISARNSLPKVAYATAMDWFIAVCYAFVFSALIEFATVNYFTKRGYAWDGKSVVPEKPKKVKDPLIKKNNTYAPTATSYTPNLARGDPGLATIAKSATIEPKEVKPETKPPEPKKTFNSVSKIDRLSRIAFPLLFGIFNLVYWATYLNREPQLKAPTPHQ
- Sequence (P63079 26-473 M311A, one chain of several): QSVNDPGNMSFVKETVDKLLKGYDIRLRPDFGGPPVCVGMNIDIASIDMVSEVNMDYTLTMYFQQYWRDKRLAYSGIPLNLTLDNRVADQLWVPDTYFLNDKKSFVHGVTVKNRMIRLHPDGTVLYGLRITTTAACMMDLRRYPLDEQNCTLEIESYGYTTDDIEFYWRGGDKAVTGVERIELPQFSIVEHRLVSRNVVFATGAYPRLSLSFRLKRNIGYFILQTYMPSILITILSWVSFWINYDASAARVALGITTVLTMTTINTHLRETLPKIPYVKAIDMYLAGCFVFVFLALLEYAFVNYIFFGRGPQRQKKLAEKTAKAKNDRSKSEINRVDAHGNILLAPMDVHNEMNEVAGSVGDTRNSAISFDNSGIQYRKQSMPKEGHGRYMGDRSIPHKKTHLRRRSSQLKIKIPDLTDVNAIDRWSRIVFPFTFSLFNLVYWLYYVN
- Assay text: I GABA enhancement by VA, two-microelectrode voltage clamp in Xenopus oocytes
Measured metric: pEC50
Reminder that pEC50 is minus the log10 of a molar concentration.

// recorded pEC50 for CC1=C2[C@H](/C=C(\C)C(=O)O)CC[C@@H](C)[C@H]2CC1 : 4.22

###

- System tested: α1β3T262Aγ2S GABAA receptor (Rattus norvegicus, UniProt P62813+P63079, T287A)
- Assay text: I GABA enhancement by VA, two-microelectrode voltage clamp in Xenopus oocytes
Measured metric: EC50 (nM)
Just the number please, in nM, no unit attached.

// EC50 lookup, compound = CC1=C2[C@H](/C=C(\C)C(=O)O)CC[C@@H](C)[C@H]2CC1 [VA, valerenic acid] , result: 2500

###

- System tested: α1L268Aβ3γ2S GABAA receptor (Rattus norvegicus, UniProt P62813+P63079, L295A)
- Sequence (P62813 28-455 L295A): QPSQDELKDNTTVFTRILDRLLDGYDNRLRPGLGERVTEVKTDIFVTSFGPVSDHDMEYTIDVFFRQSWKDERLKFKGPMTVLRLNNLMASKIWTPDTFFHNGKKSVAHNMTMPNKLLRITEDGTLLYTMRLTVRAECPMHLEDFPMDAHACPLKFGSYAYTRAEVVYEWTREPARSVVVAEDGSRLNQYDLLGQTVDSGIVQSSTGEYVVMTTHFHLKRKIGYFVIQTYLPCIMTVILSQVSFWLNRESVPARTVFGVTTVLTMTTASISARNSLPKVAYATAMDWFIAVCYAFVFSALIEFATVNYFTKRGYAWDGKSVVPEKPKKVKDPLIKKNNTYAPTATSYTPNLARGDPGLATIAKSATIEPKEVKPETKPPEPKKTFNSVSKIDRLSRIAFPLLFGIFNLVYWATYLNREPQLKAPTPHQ
- Sequence (P63079 26-473): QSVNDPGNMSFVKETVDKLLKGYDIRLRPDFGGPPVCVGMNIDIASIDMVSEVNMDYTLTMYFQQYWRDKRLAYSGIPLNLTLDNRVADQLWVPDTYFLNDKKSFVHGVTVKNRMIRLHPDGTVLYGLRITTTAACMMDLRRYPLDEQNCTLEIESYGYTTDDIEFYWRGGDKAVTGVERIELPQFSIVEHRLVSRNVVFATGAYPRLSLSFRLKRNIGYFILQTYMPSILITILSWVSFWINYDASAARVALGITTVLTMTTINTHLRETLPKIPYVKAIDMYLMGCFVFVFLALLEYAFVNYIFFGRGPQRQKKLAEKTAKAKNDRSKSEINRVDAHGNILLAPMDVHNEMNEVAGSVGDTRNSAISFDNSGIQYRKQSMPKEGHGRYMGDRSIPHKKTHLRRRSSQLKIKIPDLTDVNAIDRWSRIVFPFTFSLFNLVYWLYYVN
- Sequence (P18508 39-466 partner): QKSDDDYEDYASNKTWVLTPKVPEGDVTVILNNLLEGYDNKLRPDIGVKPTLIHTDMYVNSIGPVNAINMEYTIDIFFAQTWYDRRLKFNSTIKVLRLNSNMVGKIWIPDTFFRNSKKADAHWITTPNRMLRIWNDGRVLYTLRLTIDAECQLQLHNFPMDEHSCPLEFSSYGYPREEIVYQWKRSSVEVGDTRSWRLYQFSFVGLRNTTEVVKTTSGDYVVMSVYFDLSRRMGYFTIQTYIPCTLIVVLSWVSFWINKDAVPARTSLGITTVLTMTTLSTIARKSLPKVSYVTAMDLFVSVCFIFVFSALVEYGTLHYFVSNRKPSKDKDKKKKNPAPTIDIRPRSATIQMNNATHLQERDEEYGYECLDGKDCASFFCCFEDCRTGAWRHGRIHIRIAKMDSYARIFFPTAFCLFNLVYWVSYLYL
- Assay text: I GABA enhancement by VA, two-microelectrode voltage clamp in Xenopus oocytes
Measured metric: pEC50
Would you please state pEC50, meaning minus log10 of the concentration in mol/L, as a bare number?

Log: α1L268Aβ3γ2S GABAA receptor (Rattus norvegicus, UniProt P62813+P63079, L295A), compound CC1=C2[C@H](/C=C(\C)C(=O)O)CC[C@@H](C)[C@H]2CC1 , pEC50 = 4.70

###

- System tested: α1L231Aβ3γ2S GABAA receptor (Rattus norvegicus, UniProt P62813+P63079, L258A)
- Sequence (P62813 28-455 L258A): as the sequence (P62813 28-455 L295A) above, with L231A, A268L counted along it
- Sequence (P63079 26-473): as the sequence (P63079 26-473) above
- Sequence (P18508 39-466 partner): as the sequence (P18508 39-466 partner) above
- Assay text: I GABA enhancement by VA, two-microelectrode voltage clamp in Xenopus oocytes
- Excerpt: […]. […] Concentration‐response curves were generated, and the data were fitted by non‐linear regression analysis using ORIGIN software (OriginLab Corporation, Northampton, MA, USA). Data were fitted to the Hill equation: y=min+max−min*x^n/k^nH+x^nH k corresponds to the EC50 value; x‐values are logs of concentration, and n H is the Hill coefficient. Each data point represents the mean ± SEM from ≥3 oocytes and two oocyte batches. […]
Measured metric: EC50 (µM)
// note: answer is a bare numeric in µM

So, CC1=C2[C@H](/C=C(\C)C(=O)O)CC[C@@H](C)[C@H]2CC1 [VA, valerenic acid] ? Its EC50 was 18.8

###

- System tested: α1β3γ2S GABAA receptor (Rattus norvegicus, UniProt P62813+P63079)
- Sequence (P62813 28-455, one chain of several): as the sequence (P62813 28-455, one chain of several) above
- Assay text: I GABA enhancement by VA, two-microelectrode voltage clamp in Xenopus oocytes
Measured metric: EC50 (µM)
Field: numeric (µM). Do not append units.

Short answer on α1β3γ2S GABAA receptor (Rattus norvegicus, UniProt P62813+P63079) for CC1=C2[C@H](/C=C(\C)C(=O)O)CC[C@@H](C)[C@H]2CC1 [VA, valerenic acid] , EC50: 20.2

###

- System tested: α1β3F289Sγ2S GABAA receptor (Rattus norvegicus, UniProt P62813+P63079, F314S)
- Assay text: I GABA enhancement by VA, two-microelectrode voltage clamp in Xenopus oocytes
- Text: […]. […] Concentration‐response curves were generated, and the data were fitted by non‐linear regression analysis using ORIGIN software (OriginLab Corporation, Northampton, MA, USA). Data were fitted to the Hill equation: y=min+max−min*x^n/k^nH+x^nH k corresponds to the EC50 value; x‐values are logs of concentration, and n H is the Hill coefficient. Each data point represents the mean ± SEM from ≥3 oocytes and two oocyte batches. […]
Measured metric: pEC50
To interpret pEC50, take it as minus log10 of a concentration measured in moles per litre.

Input CC1=C2[C@H](/C=C(\C)C(=O)O)CC[C@@H](C)[C@H]2CC1 [VA, valerenic acid] . Output pEC50: 3.74
